tested on: CCRIS mutagenicity, Ames/micronucleus/aberration tests; assay: CCRIS mutagenicity studies; details: Test System: AMES SALMONELLA TYPHIMURIUM; Strain/Indicator: TA100; Metabolic Activation: RAT, LIVER, S-9, AROCLOR 1254; Method: STANDARD PLATE
The source made the active and inactive calls. The rule behind the calls is not given here.
Your answer must be one of the following: T for active, F for inactive

Past entries and their recorded results:
smi	class
O=C(/C=C/c1ccccc1)c1ccc(Br)cc1	F
CON(C)C(=O)Nc1ccc(Br)cc1	F
Clc1ccc2cc3ccccc3cc2c1	F
c1ccc(C(c2ccccc2)c2ccccc2)cc1	F
Cc1ccc2c(C)c3ccc4ccccc4c3nc2c1	T
CCCCCCCCCCCCCCCCCCO	F

Query block: Outcome? CC(C)(C)NC[C@H](O)COc1nsnc1N1CCOCC1
Result block: F

====

tested on: CCRIS mutagenicity, Ames/micronucleus/aberration tests; test: CCRIS mutagenicity studies; details: Test System: AMES SALMONELLA TYPHIMURIUM; Strain/Indicator: TA98; Metabolic Activation: RAT, LIVER, S-9, AROCLOR 1254; Method: STANDARD PLATE
Activity calls are given as the source filed them. How the calls were made is not given here.
Your answer must be one of the following: true for active, false for inactive

Past entries and their recorded results:
compound	system	class
CNc1ccc(NCCO)c2c1C(=O)c1ccccc1C2=O	CCRIS mutagenicity, Ames/micronucleus/aberration tests	true
O=Cc1cccc2cccnc12	CCRIS mutagenicity, Ames/micronucleus/aberration tests	false
CC(=O)Nc1ccc2c(c1)Cc1cccc(O)c1-2	CCRIS mutagenicity, Ames/micronucleus/aberration tests	true
CCC(CCCC(=O)O)COC(=O)c1ccccc1C(=O)O (stereo not given)	CCRIS mutagenicity, Ames/micronucleus/aberration tests	false
Cc1ccc2nc3n(C)c4ccccc4c(C)c-3c2c1	CCRIS mutagenicity, Ames/micronucleus/aberration tests	true

Query block: Outcome? CC1(C)C(C=C(Cl)Cl)C1C(=O)OC(C#N)c1cccc(Oc2ccccc2)c1 (stereo not given)
Result block: false

Query block: Outcome? [Cl][Fe]([Cl])[Cl]
Result block: false

Query block: Outcome? CCCCON=O
Result block: false

Query block: Outcome? C[C@]12CC[C@H](O)C[C@@H]1CC[C@@H]1[C@@H]2CC[C@]2(C)NC(=O)CC[C@@H]12
Result block: false

Query block: Outcome? O=[N+]([O-])C1=Cc2ccc3ccc4cccc5cc1c2c3c45
Result block: true

Query block: Outcome? CCCCOc1cc(N=Nc2ccccc2)ccc1N=Nc1c(S(=O)(=O)O)cc2ccc(N)cc2c1O
Result block: true

====

tested on: CCRIS mutagenicity, Ames/micronucleus/aberration tests; test: CCRIS mutagenicity studies; conditions: Test System: Mouse lymphoma; Strain/Indicator: L5178Y (tk+/tk-); Metabolic Activation: Rat, Liver, S-9, Aroclor 1254; Method: Suspension/plate
Calls of active or inactive are those of the source. The rule behind the calls is not given here.
Your answer must be one of the following: y (active), n (inactive)

smi	class
COCCCN	n
CN1C[C@H](C(=O)N[C@]2(C)O[C@@]3(O)[C@@H]4CCCN4C(=O)[C@H](Cc4ccccc4)N3C2=O)C=C2c3cccc4[nH]cc(c34)C[C@H]21	n
Nc1ccccc1C(=O)OC/C=C/c1ccccc1	y

Query block: Outcome? CCCc1cc(=O)oc2c3c(c4c(c12)OC(C)(C)CC4)O[C@@H](C)[C@H](C)[C@@H]3O
Result block: n
